# protocol notes: total protein half-life in vivo (active degradation + dilution); higher = more stable protein
# test context: E. coli NCM3722 delta-smpB; growth: N-lim chemostat; doubling time 6 h
quantity: total protein half-life in vivo

>>> test_value("MRILLIEDDMLIGDGIKTGLSKMGFSVDWFTQGRQGKEALYSAPYDAVILDLTLPGMDGRDILREWREKGQREPVLILTARDALAERVEGLRLGADDYLCKPFALIEVAARLEALMRRTNGQASNELRHGNVMLDPGKRIATLAGEPLTLKPKEFALLELLMRNAGRVLSRKLIEEKLYTWDEEVTSNAVEVHVHHLRRKLGSDFIRTVHGIGYTLGEK")
"4.06 h"
>>> test_value("MSCEELEIVWNNIKAEARTLADCEPMLASFYHATLLKHENLGSALSYMLANKLSSPIMPAIAIREVVEEAYAADPEMIASAACDIQAVRTRDPAVDKYSTPLLYLKGFHALQAYRIGHWLWNQGRRALAIFLQNQVSVTFQVDIHPAAKIGRGIMLDHATGIVVGETAVIENDVSILQSVTLGGTGKSGGDRHPKIREGVMIGAGAKILGNIEVGRGAKIGAGSVVLQPVPPHTTAAGVPARIVGKPDSDKPSMDMDQHFNGINHTFEYGDGI [P0A9D4]")
"4.76 h"
>>> test_value("MQILLANPRGFCAGVDRAISIVENALAIYGAPIYVRHEVVHNRYVVDSLRERGAIFIEQISEVPDGAILIFSAHGVSQAVRNEAKSRDLTVFDATCPLVTKVHMEVARASRRGEESILIGHAGHPEVEGTMGQYSNPEGGMYLVESPDDVWKLTVKNEEKLSFMTQTTLSVDDTSDVIDALRKRFPKIVGPRKDDICYATTNRQEAVRALAEQAEVVLVVGSKNSSNSNRLAELAQRMGKRAFLIDDAKDIQEEWVKEVKCVGVTAGASAPDILVQNVVARLQQLGGGEAIPLEGREENIVFEVPKELRVDIREVD")
"2.44 h"
>>> test_value("MILIIYAHPYPHHSHANKRMLEQARTLEGVEIRSLYQLYPDFNIDIAAEQEALSRADLIVWQHPMQWYSIPPLLKLWIDKVFSHGWAYGHGGTALHGKHLLWAVTTGGGESHFEIGAHPGFDVLSQPLQATAIYCGLNWLPPFAMHCTFICDDETLEGQARHYKQRLLEWQEAHHG [P0A754]")
"6.82 h"
>>> test_value("MDLRDLKTFLHLAESRHFGRSARAMHVSPSTLSRQIQRLEEDLGQPLFVRDNRTVTLTEAGEELRVFAQQTLLQYQQLRHTIDQQGPSLSGELHIFCSVTAAYSHLPPILDRFRAEHPSVEIKLTTGDAADAMEKVVTGEADLAIAGKPETLPGAVAFSMLENLAVVLIAPALPCPVRNQVSVEKPDWSTVPFIMADQGPVRRRIELWFRRNKISNPMIYATVGGHEAMVSMVALGCGVALLPEVVLENSPEPVRNRVMILERSDEKTPFELGVCAQKKRLHEPLIEAFWKILPNHK")
"6.35 h"
>>> test_value("MSAFTPASEVLLRHSDDFEQSRILFAGDLQDDLPARLDTAASRAHTQQFHHWQVLSRQMGDNARFSLVATADDVADCDTLIYYWPKNKPEAQFQLMNLLSLLPVGTDIFVVGENRSGVRSAEQMLADYAPLNKVDSARRCGLYFGRLEKQPVFDAEKFWGEYSVDGLTVKTLPGVFSRDGLDVGSQLLLSTLTPHTKGKVLDVGCGAGVLSVAFARHSPKIRLTLCDVSAPAVEASRATLAANGVEGEVFASNVFSEVKGRFDMIISNPPFHDGMQTSLDAAQTLIRGAVRHLNSGGELRIVANAFLPYPDVLDETFGFHEVIAQTGRFKVYRAIMTRQAKKG")
"5.56 h"

###

# protocol notes: total protein half-life in vivo (active degradation + dilution); higher = more stable protein
# test context: wild type E. coli NCM3722; growth: C-lim chemostat; doubling time 12 h
quantity: total protein half-life in vivo (h)

>>> test_value("MPELPEVETSRRGIEPHLVGATILHAVVRNGRLRWPVSEEIYRLSDQPVLSVQRRAKYLLLELPEGWIIIHLGMSGSLRILPEELPPEKHDHVDLVMSNGKVLRYTDPRRFGAWLWTKELEGHNVLTHLGPEPLSDDFNGEYLHQKCAKKKTAIKPWLMDNKLVVGVGNIYASESLFAAGIHPDRLASSLSLAECELLARVIKAVLLRSIEQGGTTLKDFLQSDGKPGYFAQELQVYGRKGEPCRVCGTPIVATKHAQRATFYCRQCQK")
12.7
>>> test_value("MRTLQGWLLPVFMLPMAVYAQEATVKEVHDAPAVRGSIIANMLQEHDNPFTLYPYDTNYLIYTQTSDLNKEAIASYDWAENARKDEVKFQLSLAFPLWRGILGPNSVLGASYTQKSWWQLSNSEESSPFRETNYEPQLFLGFATDYRFAGWTLRDVEMGYNHDSNGRSDPTSRSWNRLYTRLMAENGNWLVEVKPWYVVGNTDDNPDITKYMGYYQLKIGYHLGDAVLSAKGQYNWNTGYGGAELGLSYPITKHVRLYTQVYSGYGESLIDYNFNQTRVGVGVMLNDLF [P0A921]")
14.2
>>> test_value("MLNKLSLLLKDAGISLTDHQKNQLIAYVNMLHKWNKAYNLTSVRDPNEMLVRHILDSIVVAPYLQGERFIDVGTGPGLPGIPLSIVRPEAHFTLLDSLGKRVRFLRQVQHELKLENIEPVQSRVEEFPSEPPFDGVISRAFASLNDMVSWCHHLPGEQGRFYALKGQMPEDEIALLPEEYQVESVVKLQVPALDGERHLVVIKANKI [P0A6U5]")
10.5

###

# protocol notes: total protein half-life in vivo (active degradation + dilution); higher = more stable protein
# test context: E. coli NCM3722 delta-clpP; growth: N-lim chemostat; doubling time 6 h
# key: entry, value: total protein half-life in vivo
quantity: total protein half-life in vivo

>>> test_value("MYYPFVRKALFQLDPERAHEFTFQQLRRITGTPFEALVRQKVPAKPVNCMGLTFKNPLGLAAGLDKDGECIDALGAMGFGSIEIGTVTPRPQPGNDKPRLFRLVDAEGLINRMGFNNLGVDNLVENVKKAHYDGVLGINIGKNKDTPVEQGKDDYLICMEKIYAYAGYIAINISSPNTPGLRTLQYGEALDDLLTAIKNKQNDLQAMHHKYVPIAVKIAPDLSEEELIQVADSLVRHNIDGVIATNTTLDRSLVQGMKNCDQTGGLSGRPLQLKSTEIIRRLSLELNGRLPIIGVGGIDSVIAAREKIAAGASLVQIYSGFIFKGPPLIKEIVTHI [P0A7E1]")
"6.3 h"
>>> test_value("MIKVLIVDDEPLARENLRVFLQEQSDIEIVGECSNAVEGIGAVHKLRPDVLFLDIQMPRISGLEMVGMLDPEHRPYIVFLTAFDEYAIKAFEEHAFDYLLKPIDEARLEKTLARLRQERSKQDVSLLPENQQALKFIPCTGHSRIYLLQMKDVAFVSSRMSGVYVTSHEGKEGFTELTLRTLESRTPLLRCHRQYLVNLAHLQEIRLEDNGQAELILRNGLTVPVSRRYLKSLKEAIGL [P0AFT5]")
"4.54 h"
>>> test_value("MERLKRMSVFAKVVEFGSFTAAARQLQMSVSSISQTVSKLEDELQVKLLNRSTRSIGLTEAGRIYYQGCRRMLHEVQDVHEQLYAFNNTPIGTLRIGCSSTMAQNVLAGLTAKMLKEYPGLSVNLVTGIPAPDLIADGLDVVIRVGALQDSSLFSRRLGAMPMVVCAAKSYLTQYGIPEKPADLSSHSWLEYSVRPDNEFELIAPEGISTRLIPQGRFVTNDPMTLVRWLTAGAGIAYVPLMWVINEINRGELEILLPRYQSDPRPVYALYTEKDKLPLKVQVVINSLTDYFVEVGKLFQEMHGRGKEK")
"5.9 h"
>>> test_value("MSRPLLQLALDHSSLEAAQRDVTLLKDSVDIVEAGTILCLNEGLGAVKALREQCPDKIIVADWKVADAGETLAQQAFGAGANWMTIICAAPLATVEKGHAMAQRCGGEIQIELFGNWTLDDARDWHRIGVRQAIYHRGRDAQASGQQWGEADLARMKALSDIGLELSITGGITPADLPLFKDIRVKAFIAGRALAGAANPAQVAGDFHAQIDAIWGGARA")
"4 h"
>>> test_value("MENLARFLSTTLKQLRQQRGWSLSRLAEATGVSKAMLGQIERNESSPTVATLWKIATGLNVPFSTFISPPQSATPSVYDPQQQAMVITSLFPYDPQLCFEHFSIQMASGAISESTPHEKGVIEHVVVIDGQLDLCVDGEWQTLNCGEGVRFAADVTHIYRNGGEQTVHFHSLIHYPRS")
"4.59 h"
>>> test_value("MAQLYFYYSAMNAGKSTALLQSSYNYQERGMRTVVYTAEIDDRFGAGKVSSRIGLSSPAKLFNQNSSLFDEIRAEHEQQAIHCVLVDECQFLTRQQVYELSEVVDQLDIPVLCYGLRTDFRGELFIGSQYLLAWSDKLVELKTICFCGRKASMVLRLDQAGRPYNEGEQVVIGGNERYVSVCRKHYKEALQVDSLTAIQERHRHD")
"4.06 h"
